procedure.summary: in vitro
Assay type: in vitro ADME
Set-up: dose or concentration left out as unconfirmed
measurement.conditions: human, microsomes, pH 7.4
quantity: CLint scaled
Form entry: enter the amount, then its unit.

>  <line.notation>
CN(Cc1cn(-c2ccccc2)nn1)c1nc(=O)c2cc(C(F)(F)F)cc([N+](=O)[O-])c2s1

>  <CLint scaled>
1.04 L/h/kg

$$$$
>  <line.notation>
CN(Cc1csc(-c2ccccc2)n1)c1nc(=O)c2cc(C(F)(F)F)cc([N+](=O)[O-])c2s1

>  <CLint scaled>
4.3 L/h/kg

$$$$
>  <line.notation>
CN(Cc1csc(-c2ccc(F)cc2)n1)c1nc(=O)c2cc(C(F)(F)F)cc([N+](=O)[O-])c2s1

>  <CLint scaled>
1.53 L/h/kg

$$$$
>  <line.notation>
CN(Cc1coc(-c2ccccc2)n1)c1nc(=O)c2cc(C(F)(F)F)cc([N+](=O)[O-])c2s1

>  <CLint scaled>
3.1 L/h/kg

$$$$
>  <line.notation>
CN(Cc1nnc(-c2ccccc2)o1)c1nc(=O)c2cc(C(F)(F)F)cc([N+](=O)[O-])c2s1

>  <CLint scaled>
1.53 L/h/kg

$$$$

--- query ---
// query Indicate the recorded CLint scaled value for this molecule: CN(Cc1nnc(-c2ccccc2)s1)c1nc(=O)c2cc(C(F)(F)F)cc([N+](=O)[O-])c2s1
// result 3.04 L/h/kg

====

procedure.summary: Pharmacokinetic study in mice
Assay type: in vivo
measurement.conditions: male, ICR, mouse, plasma, IV 2 mg/kg
quantity: MRT (min)
The response must be a number in min with no trailing unit.

// query Answer with the recorded MRT of CN(Cc1cn(-c2ccccc2)nn1)c1nc(=O)c2cc(C(F)(F)F)cc([N+](=O)[O-])c2s1 only.
// result 90

// query Look up and report measured MRT for this entry: CN(Cc1nnc(-c2ccccc2)o1)c1nc(=O)c2cc(C(F)(F)F)cc([N+](=O)[O-])c2s1
// result 24

====

procedure.summary: Pharmacokinetic study in mice
Assay type: in vivo
measurement.conditions: male, ICR, mouse, plasma, PO 10 mg/kg
The entries below come with measured Cmax values attached.
Unit ng/mL implied. Number only.

>  <line.notation>
CN(Cc1cn(-c2ccccc2)nn1)c1nc(=O)c2cc(C(F)(F)F)cc([N+](=O)[O-])c2s1

>  <Cmax [ng/mL]>
1800

$$$$

Next item in the queue.
// query Supply Cmax value. Item: CN(Cc1nnc(-c2ccccc2)o1)c1nc(=O)c2cc(C(F)(F)F)cc([N+](=O)[O-])c2s1
// result 1890

The origin of these recorded values is paper PMC10377601.
